// abundance fitness lookup, one value per entry
B1: POU domain, class 3, transcription factor 2, residues 356 to 411; numbered along this chain, P20265 (parent)
chain: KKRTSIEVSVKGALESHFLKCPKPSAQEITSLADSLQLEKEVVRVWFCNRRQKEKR

Variants of: B1
test_description: abundance fitness (aPCA) (normalised: wild type 0, dead -1); higher = more abundant; growth selection in yeast, the domain comes from the species named
settings: Homo sapiens
Number, no unit, nothing else.

These recorded examples may help you get a feel for the data.
* S9R | 0.108
* L36R | -0.938
* V45R | -0.293
* Q27D | -0.08
* Q37D | -0.192
* K40W | -0.178

Task item: Need abundance fitness of C21Q , thanks.
Reply: -0.01

Task item: Need abundance fitness of V43E , thanks.
Reply: -1.01

Task item: Need abundance fitness of V10G , thanks.
Reply: -0.318

Task item: Need abundance fitness of K11F , thanks.
Reply: -0.139

Task item: Need abundance fitness of W46M , thanks.
Reply: -0.922

Task item: Need abundance fitness of V42Q , thanks.
Reply: -0.136

Task item: Need abundance fitness of E39L , thanks.
Reply: -0.847

Task item: Need abundance fitness of R50A , thanks.
Reply: -0.35

Task item: Need abundance fitness of K2T , thanks.
Reply: -0.21
